Listed here: items and their measured pIC50.
Experimental System: HEK-Blue-hTLR8 cells (Homo sapiens, UniProt Q9NR97)
Construct: expressed in transfected cells; host or cells: HEK-Blue-hTLR8 cells (HEK293-derived reporter line)
Sequence (Q9NR97 27-1041): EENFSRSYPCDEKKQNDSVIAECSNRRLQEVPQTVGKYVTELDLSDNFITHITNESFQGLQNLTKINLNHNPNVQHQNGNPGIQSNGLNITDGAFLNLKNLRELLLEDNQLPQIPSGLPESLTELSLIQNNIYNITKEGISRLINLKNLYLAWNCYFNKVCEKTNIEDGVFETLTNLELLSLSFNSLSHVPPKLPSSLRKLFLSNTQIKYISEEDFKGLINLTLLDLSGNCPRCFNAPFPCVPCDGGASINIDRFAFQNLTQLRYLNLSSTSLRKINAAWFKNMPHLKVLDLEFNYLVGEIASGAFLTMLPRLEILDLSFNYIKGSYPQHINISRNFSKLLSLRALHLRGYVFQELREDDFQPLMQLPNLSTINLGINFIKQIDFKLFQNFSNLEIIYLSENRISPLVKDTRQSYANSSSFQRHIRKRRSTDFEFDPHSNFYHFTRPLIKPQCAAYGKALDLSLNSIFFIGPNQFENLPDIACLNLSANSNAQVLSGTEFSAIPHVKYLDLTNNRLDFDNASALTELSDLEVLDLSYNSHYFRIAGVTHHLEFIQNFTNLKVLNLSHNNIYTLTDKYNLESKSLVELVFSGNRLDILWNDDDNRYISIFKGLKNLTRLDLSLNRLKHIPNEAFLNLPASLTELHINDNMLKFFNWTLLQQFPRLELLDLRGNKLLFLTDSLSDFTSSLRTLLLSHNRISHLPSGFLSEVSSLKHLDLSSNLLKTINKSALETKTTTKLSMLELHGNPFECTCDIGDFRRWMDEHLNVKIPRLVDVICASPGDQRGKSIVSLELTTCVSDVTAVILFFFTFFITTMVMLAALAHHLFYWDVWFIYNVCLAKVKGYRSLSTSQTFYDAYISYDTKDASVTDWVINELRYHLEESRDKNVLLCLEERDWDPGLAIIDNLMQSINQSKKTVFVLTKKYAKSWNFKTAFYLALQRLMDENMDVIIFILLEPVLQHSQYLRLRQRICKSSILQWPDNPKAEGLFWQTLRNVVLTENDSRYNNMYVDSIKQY
Assay Method Text: HEK-Blue-hTLR8 cell inhibition assay
Assay type: cell-based
Details: R848 3 µM, 16 h, OD 620 nm, read-out: TLR8 IC50
pIC50: −log10 of the molar value.

Field: example entries. Status: answers known.
• FC(F)(F)c1ccc(N2C[C@]3(c4nnc(C5CCN(CC6CC6)CC5)o4)C[C@]3(C(F)(F)F)C2)c2cccnc12 = > 7.00
• CN1CC(F)(c2nnc([C@]34CN(c5ccc(C#N)c6ncccc56)C[C@@]3(C(F)(F)F)C4)o2)C1 = > 7.00
• CN1CCC(c2nnc([C@]34CN(c5c(Br)cc(C#N)n6ncc(Br)c56)C[C@@]3(C(F)(F)F)C4)o2)CC1 = > 6.00
• Cc1ccc2c(N3C[C@]4(c5nnc(C6CCN(C)CC6)o5)C[C@]4(C(F)(F)F)C3)ccc(C#N)c2n1 = < 6.00

Problem: For the compound `CN(C)CCc1nnc([C@]23CN(c4ccc(C#N)c5ncccc45)C[C@@]2(C(F)(F)F)C3)o1` , report pIC50.
Result: > 7.00

Problem: Give me measured pIC50, please, for this compound: `N#Cc1ccc(N2C[C@]3(c4nnc(C5(F)CCNCC5)o4)C[C@]3(C(F)(F)F)C2)c2cccnc12`
Result: > 7.00

Problem: Answer with the recorded pIC50 for the compound listed here: CN1CCC(c2nnc([C@]34CN(c5ccc(C#N)c6ncccc56)C[C@@]3(C(F)(F)F)C4)o2)C(F)C1 (stereo partly shown)
Result: > 7.00
